target: TYK2 (Homo sapiens, UniProt P29597); construct: Degradation of TYK2 in cells was quantitatively measured using Meso Scale Discovery (MSD) technology; endogenous in cells; host or cells: OCI-LY10; assay: TYK2 MSD degradation in OCI-LY10 cells; format: cell-based; conditions: TYK2 degradation in OCI-LY10 cells, 4 to 24 hours incubation
Sequence (P29597 whole entry): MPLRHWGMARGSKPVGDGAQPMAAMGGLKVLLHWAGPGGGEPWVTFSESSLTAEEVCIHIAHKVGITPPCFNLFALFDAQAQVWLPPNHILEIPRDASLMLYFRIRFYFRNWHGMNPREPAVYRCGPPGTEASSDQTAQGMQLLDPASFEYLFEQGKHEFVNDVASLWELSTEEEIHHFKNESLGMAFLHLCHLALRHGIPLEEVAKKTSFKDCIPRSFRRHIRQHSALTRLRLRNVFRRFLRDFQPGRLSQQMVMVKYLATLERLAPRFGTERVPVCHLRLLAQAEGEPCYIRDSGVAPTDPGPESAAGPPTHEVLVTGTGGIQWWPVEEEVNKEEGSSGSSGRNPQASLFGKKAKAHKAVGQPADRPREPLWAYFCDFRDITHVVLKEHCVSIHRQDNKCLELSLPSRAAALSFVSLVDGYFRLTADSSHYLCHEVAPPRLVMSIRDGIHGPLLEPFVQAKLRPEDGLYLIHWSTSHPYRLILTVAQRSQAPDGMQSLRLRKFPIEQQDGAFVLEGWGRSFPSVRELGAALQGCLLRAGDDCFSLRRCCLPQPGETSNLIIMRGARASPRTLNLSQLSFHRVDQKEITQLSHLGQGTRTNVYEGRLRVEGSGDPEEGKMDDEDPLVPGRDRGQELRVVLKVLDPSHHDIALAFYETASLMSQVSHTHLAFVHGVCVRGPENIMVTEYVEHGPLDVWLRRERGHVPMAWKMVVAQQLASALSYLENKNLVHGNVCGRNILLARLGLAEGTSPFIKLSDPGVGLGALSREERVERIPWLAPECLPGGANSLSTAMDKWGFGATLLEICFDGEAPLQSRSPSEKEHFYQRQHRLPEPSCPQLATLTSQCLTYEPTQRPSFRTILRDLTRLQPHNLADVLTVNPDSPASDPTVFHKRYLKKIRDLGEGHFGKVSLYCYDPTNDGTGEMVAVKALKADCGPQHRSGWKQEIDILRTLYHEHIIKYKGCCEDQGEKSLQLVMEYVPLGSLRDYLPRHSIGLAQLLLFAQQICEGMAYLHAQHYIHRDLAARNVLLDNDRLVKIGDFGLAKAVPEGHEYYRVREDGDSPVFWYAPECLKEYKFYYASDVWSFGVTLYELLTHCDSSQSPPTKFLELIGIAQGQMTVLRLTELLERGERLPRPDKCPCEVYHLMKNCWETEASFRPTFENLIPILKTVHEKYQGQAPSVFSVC
recorded.metric: TYK2 MSD OCI-LY10 Dmax %

Solved entries (count: 8):
## Task What value of TYK2 MSD OCI-LY10 Dmax % has been recorded for this entry: CNc1cc(N2CCc3c(-c4ncc(CN5CC6(CCN(C(=O)c7cc(N8CCC(=O)NC8=O)c(OC)cc7F)CC6(F)F)C5)cc4F)cccc32)nn2c(C(=O)N[C@@H]3CC[C@H]3OC)cnc12
## Result A (A (>90%))

## Task What value of TYK2 MSD OCI-LY10 Dmax % has been recorded for this entry: CNc1cc(N2CCc3c(-c4ccc(CN5CCN(CC#Cc6cccc(N7CCC(=O)NC7=O)c6C)CC5)cn4)cccc32)nn2c(C(=O)NC3CC3F)cnc12 (stereo not shown)
## Result C (C (75 to 50%))

## Task What value of TYK2 MSD OCI-LY10 Dmax % has been recorded for this entry: CNc1cc(N2CCc3c(-c4ccc(CN5CCN(Cc6ccc(C7CCC(=O)NC7=O)c(Cl)c6)CC5)cn4)cccc32)nn2c(C(=O)N[C@@H]3C[C@@H]3F)cnc12 (stereo partly shown)
## Result D (D (<50%))

## Task What value of TYK2 MSD OCI-LY10 Dmax % has been recorded for this entry: CNc1cc(N2CCc3c(-c4ccc(CN5CCC6(CCN(C(=O)c7ccc(C(F)F)c(N8CCC(=O)NC8=O)c7)CC6)C(F)(F)C5)cn4)cccc32)nn2c(C(=O)N[C@@H]3C[C@@H]3F)cnc12
## Result C (C (75 to 50%))

## Task What value of TYK2 MSD OCI-LY10 Dmax % has been recorded for this entry: CNc1cc(N2CCc3c(-c4ccc(CN5CCC6(CC5)CC(Oc5ccc(N7CCC(=O)NC7=O)c(Cl)c5)C6)cn4)cccc32)nn2c(C(=O)N[C@@H]3C[C@@H]3F)cnc12
## Result D (D (<50%))

## Task What value of TYK2 MSD OCI-LY10 Dmax % has been recorded for this entry: CNc1cc(N2CCc3c(N4CCN(CC5CC6(CCN(C(=O)c7ccc(Cl)c(N8CCC(=O)NC8=O)c7)CC6)C5)CC4)cccc32)nn2c(C(=O)NC3CC3)cnc12
## Result C (C (75 to 50%))

## Task What value of TYK2 MSD OCI-LY10 Dmax % has been recorded for this entry: CNc1cc(N2CCc3c(N4CCN(C5CC6(CCN(C(=O)c7ccc(Cl)c(N8CCC(=O)NC8=O)c7)CC6)C5)CC4)cccc32)nn2c(C(=O)N[C@@H]3C[C@@H]3F)cnc12
## Result D (D (<50%))

## Task What value of TYK2 MSD OCI-LY10 Dmax % has been recorded for this entry: CNc1cc(N2CCc3c(-c4ccc(OC5CC6(CCN(C(=O)c7cc(C)c(Cl)c(N8CCC(=O)NC8=O)c7)CC6)C5)cn4)cccc32)nn2c(C(=O)N[C@@H]3CC[C@H]3OC)cnc12
## Result A (A (>90%))

Attention now turns to another entry.
## Task What value of TYK2 MSD OCI-LY10 Dmax % has been recorded for this entry: CNc1cc(N2CCc3c(-c4ncc(CN5CC6(CCN(C(=O)c7cc(N8CCC(=O)NC8=O)c(Cl)c(C)n7)CC6(F)F)C5)cc4F)cc(F)cc32)nn2c(C(=O)N[C@@H]3C[C@@H]3F)cnc12
## Result A (A (>90%))

---

target: TYK2 (Homo sapiens, UniProt P29597); construct: Degradation of TYK2 in cells was quantitatively measured using Meso Scale Discovery (MSD) technology; endogenous in cells; host or cells: OCI-LY10; assay: TYK2 MSD degradation in OCI-LY10 cells; type: cell-based; conditions: TYK2 degradation in OCI-LY10 cells, 4 to 24 hours incubation
recorded.metric: TYK2 MSD OCI-LY10 Dmax %

## Task Provide the documented TYK2 MSD OCI-LY10 Dmax % with TYK2 (Homo sapiens, UniProt P29597) as the system for CNc1cc(N2CCc3c(N4CCN(CC5CCC6(CC5)CCN(c5ccc7c(c5)n(C)c(=O)n7C5CCC(=O)NC5=O)CC6)CC4)cccc32)nn2c(C(=O)NC3CC3)cnc12 (centres unmarked) [I-39]
## Result D (D (<50%))

## Task Provide the documented TYK2 MSD OCI-LY10 Dmax % with TYK2 (Homo sapiens, UniProt P29597) as the system for CNc1cc(N2CCc3c(CN4CCC(CN5CCC6(CC5)CN(C(=O)c5ccc(Cl)c(N7CCC(=O)NC7=O)c5)C6)CC4)cccc32)nn2c(C(=O)N[C@@H]3C[C@@H]3F)cnc12 [I-893]
## Result D (D (<50%))

## Task Provide the documented TYK2 MSD OCI-LY10 Dmax % with TYK2 (Homo sapiens, UniProt P29597) as the system for CNc1cc(N2CCc3c(-c4ccc(CN5CCC6(CC5)CCN(c5cc(Cl)cc(NC7CCC(=O)NC7=O)c5)CC6)cn4)cccc32)nn2c(C(=O)NC3CC3)cnc12 (centres unmarked) [I-65]
## Result D (D (<50%))

---

molecular target: TYK2 (Homo sapiens); construct: Degradation of TYK2 in cells was quantitatively measured using Meso Scale Discovery (MSD) technology; endogenous in cells; host or cells: OCI-LY10; assay: TYK2 MSD degradation in OCI-LY10 cells; type: cell-based; details: TYK2 degradation in OCI-LY10 cells, 4 to 24 hours incubation, read-out: TYK2 MSD OCI-LY10 Rel-DC50
Consider the following molecules; for each one, report its DC50.

## Task What value of DC50 has been recorded for this entry: CNc1cc(N2CCc3c2cccc3C23CC(CN4CCN(C5CCN(C(=O)c6ccc(Cl)c(N7CCC(=O)NC7=O)c6)CC5(F)F)CC4)(C2)C3)nn2c(C(=O)N[C@@H]3C[C@@H]3F)cnc12 (some centres unmarked) [I-832]
## Result < 1 nM

## Task What value of DC50 has been recorded for this entry: CNc1cc(N2CCc3c(-c4ncc(CN5CC6(CCN(C(=O)c7cc(N8CCC(=O)NC8=O)c(C)cn7)CC6(F)F)C5)cc4F)cccc32)nn2c(C(=O)N[C@@H]3C[C@@H]3F)cnc12 [I-1012]
## Result < 1 nM

## Task What value of DC50 has been recorded for this entry: CNc1cc(N2CCc3c(-c4ccc(CN5CCC(N6CC(N7CCN(c8cccc9c8n(C)c(=O)n9C8CCC(=O)NC8=O)CC7)C6)C(F)(F)C5)cn4)cccc32)nn2c(C(=O)N[C@@H]3C[C@@H]3F)cnc12 (some centres unmarked) [I-277]
## Result < 1 nM

## Task What value of DC50 has been recorded for this entry: CNc1cc(N2CCc3c(CN4CCC(N5CCC6(CCN(C(=O)c7cc(N8CCC(=O)NC8=O)c(C)c(Cl)c7F)CC6)CC5)C(F)(F)C4)cccc32)nn2c(C(=O)N[C@@H]3CC[C@H]3OC)cnc12 (some centres unmarked) [I-1125]
## Result < 1 nM

## Task What value of DC50 has been recorded for this entry: CNc1cc(N2CCc3c(CN4CCC(CN5CCC6(CC5)CCN(C(=O)c5ccc(Cl)c(N7CCC(=O)NC7=O)c5)CC6)C(F)(F)C4)cccc32)nn2c(C(=O)N[C@@H]3CC[C@H]3OC)cnc12 (some centres unmarked) [I-1074]
## Result < 1 nM

## Task What value of DC50 has been recorded for this entry: CNc1cc(N2CCc3c(-c4ccc(CN5CC6(C5)CN(C(=O)c5ccc(Cl)c(N7CCC(=O)NC7=O)c5)C6)cn4)cccc32)nn2c(C(=O)NC3CC3F)cnc12 (centres unmarked) [I-295]
## Result < 10 nM

## Task What value of DC50 has been recorded for this entry: CNc1cc(N2CCc3c(-c4ncc(CN5CC6(CCN(C(=O)c7cc(Cl)c(C)c(N8CCC(=O)NC8=O)c7)CC6(F)F)C5)cc4F)cccc32)nn2c(C(=O)N[C@@H]3C[C@@H]3F)cnc12 [I-1008]
## Result < 1 nM

## Task What value of DC50 has been recorded for this entry: CNc1cc(N2CCc3c(N4CCN(C5CC6(CCN(C(=O)c7ccc(Cl)c(N8CCC(=O)NC8=O)c7)CC6)C5)CC4)cccc32)nn2c(C(=O)N[C@@H]3C[C@@H]3F)cnc12 [I-283]
## Result > 100 nM

## Task What value of DC50 has been recorded for this entry: CNc1cc(N2CCc3c(CN4CCC(N5CCC6(CCN(C(=O)c7cc(Cl)c(C)c(N8CCC(=O)NC8=O)c7)CC6)CC5)C(F)(F)C4)cccc32)nn2c(C(=O)NC3CCC3OC)cnc12 (centres unmarked) [I-1000]
## Result < 1 nM

## Task What value of DC50 has been recorded for this entry: CNc1cc(N2CCc3c(-c4ccc(CN5CC6(CCN(Cc7ccc(C)c(N8CCC(=O)NC8=O)c7)CC6(F)F)C5)cn4)cccc32)nn2c(C(=O)N[C@@H]3C[C@@H]3F)cnc12 [I-366]
## Result < 10 nM

## Task What value of DC50 has been recorded for this entry: CNc1cc(N2CCc3c(-c4ccc(CN5CCC6(CCN(C(=O)c7ccc(Cl)c(N8CCC(=O)NC8=O)c7)CC6)C(F)(F)C5)cn4)cccc32)nn2c(C(=O)N[C@@H]3C[C@@H]3F)cnc12 [I-901]
## Result < 1 nM

## Task What value of DC50 has been recorded for this entry: CNc1cc(N2CCc3c(-c4ccc(CN5CC6(CCN(C(=O)c7cc(C)c(Cl)c(N8CCC(=O)NC8=O)c7)CC6(F)F)C5)cn4)cccc32)nn2c(C(=O)NCc3ncco3)cnc12 [I-1077]
## Result < 1 nM

## Task What value of DC50 has been recorded for this entry: CNc1cc(-c2cccc(N3CCN(Cc4ccc5c(c4)n(C)c(=O)n5C4CCC(=O)NC4=O)CC3)n2)nn2c(C(=O)NC3CC3)cnc12 (centres unmarked) [I-198]
## Result > 100 nM

## Task What value of DC50 has been recorded for this entry: CNc1cc(N2CCc3c(-c4ccc(CN5CC6(CCN(C(=O)c7cccc(N8CCC(=O)NC8=O)c7C)CC6)C5)cn4)cccc32)nn2c(C(=O)NC3CC3F)cnc12 (centres unmarked) [I-309]
## Result > 100 nM

## Task What value of DC50 has been recorded for this entry: CNC(=O)c1cnc(Nc2ccc(C(=O)NCCOCCOCCOCCOCCN(C(=O)C3CCCN(c4cncc5ccccc45)C3)c3ccc(=O)n(CC(=O)O)c3)cn2)cc1Nc1cccc(-c2ncccn2)c1OC (centres unmarked) [I-920]
## Result > 100 nM

## Task What value of DC50 has been recorded for this entry: CNc1cc(N2CCc3c(-c4ccc(CN5CC6(CCN(C(=O)c7cc(C)c(Cl)c(N8CCC(=O)NC8=O)c7)CC6(F)F)C5)c(C)n4)cccc32)nn2c(C(=O)N[C@@H]3C[C@@H]3F)cnc12 [I-966]
## Result < 10 nM

## Task What value of DC50 has been recorded for this entry: CNc1cc(N2CCc3c(CN4CCC(CN5CCC6(CC5)CN(C(=O)c5ccc(Cl)c(N7CCC(=O)NC7=O)c5)C6)CC4)cccc32)nn2c(C(=O)N[C@@H]3C[C@@H]3F)cnc12 [I-893]
## Result > 100 nM

## Task What value of DC50 has been recorded for this entry: CNc1cc(N2CCc3c(-c4ncc(CN5CC6(CCN(C(=O)c7cc(Cl)c(C)c(N8CCC(=O)NC8=O)c7)CC6(F)F)C5)cc4F)cc(F)cc32)nn2c(C(=O)N[C@@H]3C[C@@H]3F)cnc12 [I-944]
## Result < 1 nM

## Task What value of DC50 has been recorded for this entry: CNc1cc(N2CCc3c(CN4CC[C@H](N5CCC6(CC5)CN(C(=O)c5cc(Cl)c(C)c(N7CCC(=O)NC7=O)c5)C6)C(F)(F)C4)cccc32)nn2c(C(=O)N[C@@H]3CC[C@H]3OC)cnc12 [I-1142]
## Result < 1 nM

## Task What value of DC50 has been recorded for this entry: CNc1cc(N2CCc3c(-c4ccc(CN5CCN(CC#Cc6cccc(N7CCC(=O)NC7=O)c6C)CC5)cn4)cccc32)nn2c(C(=O)NC3CC3F)cnc12 (centres unmarked) [I-311]
## Result > 100 nM
